# Tested on: pulmonary eosinophil infiltration
# Method: Inhibition of late-phase eosinophilia 24 h after inhalational ovalbumin challenge in actively sensitized guinea-pigs
# Type: in vivo
# Condition: 10 mg/kg i.p. -2 h; BAL 24 h after OVA challenge
Value type: Eosinophil million/animal x ± s, B = group treated with substance with OVA challenge (million/animal)
Field: numeric (million/animal). Do not append units.

Fill blank: measured Eosinophil million/animal x ± s, B = group treated with substance with OVA challenge of the compound COc1ccc2c(c1)c(OCCOc1c(F)cc(F)cc1Br)nn2CCOc1ccc([N+](=O)[O-])cc1 is ____.
1.35

Also need O=C(Nc1ccc2c(c1)c(OCCOc1ccc([N+](=O)[O-])cc1)nn2Cc1ccc(Cl)cc1Cl)Nc1cccc2ccccc12 , thanks.
1.19

Also need COc1ccc2c(c1)c(OCc1noc(-c3cccc(C(F)(F)F)c3)n1)nn2S(=O)(=O)c1ccc(C)cc1 , thanks.
0.86
